Test system: CCRF-CEM leukemia
assay_protocol: NCI tumour cell line growth inhibition, 48 h
# label = true (1) if TGI >= 10 µM else false (0)

Consider the worked cases shown below.
molecule	classification
CSc1nc(-c2cc3ccccc3o2)cc(-c2ccc(Cl)cc2)c1C#N	true (1)
O=C(c1ccc(Cl)c(Cl)c1)N1CCN(C(=O)c2ccc(Cl)c(Cl)c2)C1=S	true (1)
CC(C)=CCNc1ncnc2c1c(C#N)cn2C1OC(CO)C(O)C1O (stereo not drawn)	true (1)

Now for another entry.
Decide: is the reported value of TGI for COC(=O)c1oc([N+](=O)[O-])c(Cl)c1Cl equal to or greater than 10 µM?
false (0)

* * *

# maps each entry to its TGI
Test system: BT-549 breast
assay_protocol: NCI tumour cell line growth inhibition, 48 h

Use these answered entries as a reference point.
O=C1/C=C/[C@@H](O)[C@@H]2C[C@@H](O)C[C@H]2/C=C/CCC[C@H](CCOCc2ccccc2)O1 > 21.9 µM
CCc1n[nH]c(=O)n1/N=C/c1ccc(/C=N/n2c(CC)n[nH]c2=O)cc1 > 100 µM
ClCc1ccccc1Cn1cnc2c(Cl)nc(Cl)nc21 1.5 µM

Quick one: TGI of COc1cc(C(c2c(O)c3ccccc3oc2=O)c2c(O)c3ccccc3oc2=O)ccc1O ?
38.9 µM

Also, CN(C)CCCNc1ccnc2cccc([N+](=O)[O-])c12 please.
43.9 µM

Also, O=S(=O)(c1ccc(Cl)cc1)c1ccccc1C1=NCCN1 please.
> 100 µM

Also, CC(C)(C)/C(O)=C\c1nc2ccc(C(F)(F)F)cc2[nH]c1=O please.
> 100 µM

Also, COc1cccc(C2=C(c3cn(C)c4ccc(Cl)cc34)C(=O)NC2=O)c1 please.
> 19 µM

Also, O=C(/C=C/c1ccc(O)c(O)c1)OCCCOC(=O)/C=C/c1ccc(O)c(O)c1 please.
> 100 µM

Also, COc1nc(-c2c[nH]c3ccccc23)cnc1N please.
> 100 µM

* * *

System: CAKI-1 renal
assay_protocol: NCI tumour cell line growth inhibition, 48 h
property_label: TGI

Cc1ccc(S(=O)(=O)c2ccccc2)cc1 > 100 µM
O=C1/C(=C/c2ccco2)N=C(c2ccccc2)N1c1ccc(S(=O)(=O)Nc2nccs2)cc1 > 100 µM
O=c1n(-c2ccc(Cl)c(Cl)c2)c(=O)n(-c2ccc(Cl)c(Cl)c2)c(=O)n1-c1ccc(Cl)c(Cl)c1 7.07 µM
CC(C)C(=O)OCN(C)c1nc(N(C)COC(=O)C(C)C)nc(N(C)COC(=O)C(C)C)n1 > 100 µM
CN(C)CCn1c(=O)c2ccc(NCCCN(C)CCCNc3ccc4c(=O)n(CCN(C)C)c(=O)n5c6ccccc6c(=O)c3c45)c3c(=O)c4ccccc4n(c1=O)c23 0.426 µM

Quick one: TGI of O=C(Nc1ccc(Cl)cc1)c1cc2c(cc1Cl)SC(NNCCO)=NS2(=O)=O ?
> 100 µM

* * *

System: M14 melanoma
assay_protocol: NCI tumour cell line growth inhibition, 48 h
# maps each entry to its TGI

Use these answered entries as a reference point.
compound	TGI
CCCCC(CCCCCC(CCCC)C1NC(C)Cc2cc(OC)c(OC)cc21)C1NC(C)Cc2cc(OC)c(OC)cc21 (centres undefined)	3.39 µM
O=C(Nc1ccc(Cl)cc1)c1cc2c(cc1Cl)SC(NNCCO)=NS2(=O)=O	> 100 µM
O=C(CCc1nnc2s/c(=C\c3ccccc3[N+](=O)[O-])c(=O)n12)Nc1cc(Cl)c(Cl)cc1Cl	> 100 µM

Quick one: TGI of O=C1/C(=C/c2ccco2)N=C(c2ccccc2)N1c1ccc(S(=O)(=O)Nc2nccs2)cc1 ?
> 100 µM

Also, O=C(O)c1ccc(C(=O)Nc2cccc3ccccc23)c(C(=O)O)c1 please.
> 100 µM

Also, COc1ccc(/C(C)=C(\c2ccc(Cl)cc2)c2ccc(OCCN3CCCCC3)cc2)cc1 please.
2.36 µM

Also, C[C@]12CC[C@@H]3c4ccc(O)cc4CC[C@H]3[C@@H]1CC[C@@H]2NS(=O)(=O)c1ccc(Cl)cc1 please.
27.1 µM

Also, COc1ccc2cc(C#Cc3ccc(-n4c(/C=C/c5cc(OC)c(OC)c(OC)c5)nc5ccccc5c4=O)c(C)c3)ccc2c1 please.
> 100 µM

Also, O=C(Nc1ccc2[nH]c3ccccc3c2c1)c1ccccc1Cl please.
> 100 µM

Also, CCOC(=O)CCc1cccc2c1oc1c(CCNC(=O)OCC3c4ccccc4-c4ccccc43)cccc12 please.
> 100 µM

Also, CC(=O)NNc1nc(C)c(C(=O)/C=C/C=C/c2ccccc2)s1 please.
> 100 µM

* * *

System: RXF 393 renal
assay_protocol: NCI tumour cell line growth inhibition, 48 h
property_label: TGI (µM)
Response body: numeric value in µM, unit text excluded.

Use these answered entries as a reference point.
sample_smiles	TGI / µM
CCOC(=O)O/C(=C\c1ccc(OC)cc1)c1c(OC(=O)OCC)n(C(=O)OCC)c2ccccc12	67.9
O=C(Cc1n[nH]c(=O)c2ccccc12)OCc1c(Cl)cccc1Cl	68.3

Okay, now this compound:
Field: TGI (RXF 393 renal). Entry: Cc1nc2ccccc2nc1NNc1ccccc1
78.7

* * *

# maps each entry to its TGI
Tested on: SN12C renal
assay_protocol: NCI tumour cell line growth inhibition, 48 h

Quick one: TGI of OC1CCCN(C2(c3cccs3)CCCCC2)C1 (centres undefined) ?
> 100 µM

Also, CC(C)(C)OC(=O)C1CCC/C1=N/Nc1ccc([N+](=O)[O-])cc1[N+](=O)[O-] (centres undefined) please.
> 100 µM

Also, O=[N+]([O-])c1ccc2c(c1)c1nn2CCCCOc2nn(c3ccc([N+](=O)[O-])cc23)CCCCO1 please.
> 100 µM

Also, Cc1ccc(C(=O)N/N=C(\N=Nc2cccc([N+](=O)[O-])c2)c2ccc(N(C)C)cc2)cc1 please.
> 100 µM

Also, COc1cc(C=C(c2ccc(N(C)C)cc2)c2ccc(N(C)C)cc2)c2ccccc2c1OC please.
> 100 µM

* * *

System: DU-145 prostate
assay_protocol: NCI tumour cell line growth inhibition, 48 h
property_label: GI50

Use these answered entries as a reference point.
compound	GI50
O=C(Nc1ccc2[nH]c3ccccc3c2c1)c1ccccc1Cl	6090 nM
ClCc1ccccc1Cn1cnc2c(Cl)nc(Cl)nc21	207 nM
CC[C@H](C)[C@H](NC(=O)c1ccccn1)C(=O)N(C)[C@H](C[C@@H](OC(C)=O)c1nc(C(=O)N[C@@H](Cc2ccccc2)C[C@H](C)C(=O)OC)cs1)C(C)C	34700 nM
Oc1c(Br)cc(Br)c2ccc(Cn3cc(-c4ccc(C(F)(F)F)cc4)nn3)nc12	1670 nM
COC1=C(OC)C(=O)C(CCCCCCCCCC[P+](c2ccccc2)(c2ccccc2)c2ccccc2)=C(C)C1=O	351 nM

Field: GI50 (DU-145 prostate). Entry: COc1cccc2c1C(=O)c1c(O)c3c(c(O)c1C2=O)C[C@@](O)(C(=O)CO)C[C@@H]3OC1CC2C(OCN3CN2COC2C(C)OC(O[C@H]4C[C@](O)(C(=O)CO)Cc5c(O)c6c(c(O)c54)C(=O)c4c(OC)cccc4C6=O)CC23)C(C)O1 (stereo partly drawn)
11.9 nM

Also, c1cc[n+](C2c3ccccc3C([n+]3ccccc3)c3ccccc32)cc1 (stereo not drawn) please.
14200 nM

Also, CNC(=O)c1ccccc1Nc1cc(Nc2ccc(N3CCOCC3)cc2OC)ncc1C(F)(F)F please.
3400 nM

* * *

Test system: XF 498 CNS
assay_protocol: NCI tumour cell line growth inhibition, 48 h
# label = MET if TGI >= 30 µM else NOT MET

Decide: is the reported value of TGI for CCC[CH2][Sn]1([CH2]CCC)[O]CC(CN2CCCCC2)[O]1 (stereo unspecified) equal to or greater than 30 µM?
NOT MET

Also, COc1cc(/C=C(\NC(=O)c2ccccc2)c2nc3[nH]c(=S)[nH]c(=O)c3[nH]2)cc(OC)c1OC please.
MET

Also, Clc1ccc(-c2nnc3c4nnc(-c5ccc(Cl)cc5Cl)n4c4ccccc4n23)c(Cl)c1 please.
MET

* * *

Test system: SN12C renal
assay_protocol: NCI tumour cell line growth inhibition, 48 h
Where a SMILES comes first, the peptide text is derived from it. [ ]: non-standard residue; d: D form. The star is where a group is joined. Dolaproine = CO[C@@H]([C@@H]1CCCN1)[C@@H](C)C(=O)O; Dil = CC[C@H](C)[C@H](NC)[C@@H](CC(=O)O)OC; X2 = C[C@@H](N*)[C@@H](O)c1ccccc1; NMeV = CN[C@H](C(=O)O)C(C)C
property_label: TGI

compound	property_label	value_observed
CCOC(=O)[C@H]1O[C@@H]1C(=O)NC(CC(C)C)C(=O)NCCC(C)C (stereo not given in full)	TGI	> 100 µM
CCC[CH2][Sn]1([CH2]CCC)[O]CC(CN2CCCCC2)[O]1 (stereo not given)	TGI	1.43 µM
CCc1n[nH]c(=O)n1/N=C/c1ccc(/C=N/n2c(CC)n[nH]c2=O)cc1	TGI	> 100 µM
CC[C@H](C)[C@@H]([C@@H](CC(=O)N1CCC[C@H]1[C@H](OC)[C@@H](C)C(=O)N[C@H](C)[C@@H](O)c1ccccc1)OC)N(C)C(=O)[C@@H](NC(=O)[C@@H](NC)C(C)C)C(C)C (H-[NMeV]V[Dil][Dolaproine]-X2)	TGI	> 100 µM
O=C(CC1(O)C(=O)Nc2c(Cl)cc(Cl)cc21)c1ccc(Br)cc1 (stereo not given)	TGI	> 50.4 µM

Quick one: TGI of CC1(C)CC(C)(C)CC(O)(C2(O)CC(C)(C)CC(C)(C)C2)C1 ?
> 100 µM

Also, CC(C)(C)c1ccc(O)c(CN(Cc2c(O)ccc3ccccc23)C2CCCCC2)c1 please.
33.1 µM

Also, O=C(CC(=O)n1nc(-c2ccccc2)c(N=Nc2ccccc2Cl)c1-c1ccccc1)Nc1ccc(Cl)cc1 please.
> 100 µM

Also, C[C@H](C(=O)C12CC3CC(CC(C3)C1)C2)[C@H](O)c1ccccc1 please.
36.1 µM

Also, Oc1c(Br)cc(Br)c2ccc(Cn3cc(-c4ccc(C(F)(F)F)cc4)nn3)nc12 please.
14.4 µM

Data provenance is PubChem BioAssay (NCI).
